- TARGET OR SYSTEM: H^+ --K^+ ATPase (Sus scrofa, UniProt P19156)
- Construct: prepared from a gland portion of the gastric fundus of the gastiric mucosa of a fresh pig; from tissue; host or cells: gland portion of the gastric fundus mucosa, fresh pig
- Sequence (P19156 2-1034 limits assumed): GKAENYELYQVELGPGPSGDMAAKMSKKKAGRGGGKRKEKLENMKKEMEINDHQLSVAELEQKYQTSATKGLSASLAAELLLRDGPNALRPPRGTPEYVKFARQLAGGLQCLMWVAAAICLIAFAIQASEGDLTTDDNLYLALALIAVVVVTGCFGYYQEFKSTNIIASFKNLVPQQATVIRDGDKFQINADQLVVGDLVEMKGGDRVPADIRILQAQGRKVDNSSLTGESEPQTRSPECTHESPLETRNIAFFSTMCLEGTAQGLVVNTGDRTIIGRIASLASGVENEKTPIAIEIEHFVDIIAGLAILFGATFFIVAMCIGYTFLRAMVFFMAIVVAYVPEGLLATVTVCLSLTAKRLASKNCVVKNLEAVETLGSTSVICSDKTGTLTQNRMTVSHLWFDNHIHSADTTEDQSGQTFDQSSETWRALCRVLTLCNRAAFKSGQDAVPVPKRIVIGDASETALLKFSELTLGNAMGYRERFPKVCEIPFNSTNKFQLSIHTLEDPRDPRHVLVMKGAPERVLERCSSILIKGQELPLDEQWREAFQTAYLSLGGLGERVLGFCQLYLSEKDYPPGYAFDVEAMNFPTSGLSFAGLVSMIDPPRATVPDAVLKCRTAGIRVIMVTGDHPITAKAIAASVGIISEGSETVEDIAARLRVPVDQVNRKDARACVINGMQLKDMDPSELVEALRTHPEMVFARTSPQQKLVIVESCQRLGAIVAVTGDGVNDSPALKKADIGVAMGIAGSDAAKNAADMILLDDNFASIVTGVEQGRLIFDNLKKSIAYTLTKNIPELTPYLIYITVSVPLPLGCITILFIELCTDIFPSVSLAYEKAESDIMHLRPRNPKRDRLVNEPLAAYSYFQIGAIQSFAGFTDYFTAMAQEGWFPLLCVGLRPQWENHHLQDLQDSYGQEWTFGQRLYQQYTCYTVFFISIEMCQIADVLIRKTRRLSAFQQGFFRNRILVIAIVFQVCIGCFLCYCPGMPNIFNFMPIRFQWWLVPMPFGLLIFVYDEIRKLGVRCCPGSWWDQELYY
- Sequence (P18434 whole entry partner): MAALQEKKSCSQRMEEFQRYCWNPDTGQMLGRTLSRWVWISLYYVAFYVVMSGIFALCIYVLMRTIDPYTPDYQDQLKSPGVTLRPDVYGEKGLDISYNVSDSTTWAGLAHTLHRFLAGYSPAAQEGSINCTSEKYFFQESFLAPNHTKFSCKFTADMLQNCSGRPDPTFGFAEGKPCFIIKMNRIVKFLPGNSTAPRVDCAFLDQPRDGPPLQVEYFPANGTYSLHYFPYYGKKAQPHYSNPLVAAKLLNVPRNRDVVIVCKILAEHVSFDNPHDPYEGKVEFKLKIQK
- TEST PROTOCOL: H+-K+ ATPase activity inhibition
- Type: biochemical
- MEASUREMENT SETUP: pig gastric fundus gland H+-K+ ATPase; pH 7.40, 37° C., 30 min incubation; compound dissolved in methanol; read-out: inhibitory effect on H+-K+ ATPase activity, IC50
Recorded measurements of IC50, one per entry
Form entry: value (nM) — number only.

Prompt line: // lookup IC50 | system=H^+ --K^+ ATPase (Sus scrofa, UniProt P19156) | key= CCOCCOc1ccnc(C[S+]([O-])c2nc3cc(OC)ccc3[nH]2)c1C (stereo not shown)
Response line: 3400

Prompt line: # value lookup — system H^+ --K^+ ATPase (Sus scrofa, UniProt P19156), readout IC50, item CCCCOCCOc1ccnc(C[S+]([O-])c2nc3ccccc3[nH]2)c1C (stereo not shown)
Response line: 1800

Prompt line: Form entry - test system: H^+ --K^+ ATPase (Sus scrofa, UniProt P19156); read-out: IC50; molecule: CCCCOCCOc1ccnc(C[S+]([O-])c2nc3cc(Cl)ccc3[nH]2)c1C (stereo not shown)
Response line: 1800

Prompt line: Quick check: IC50 on H^+ --K^+ ATPase (Sus scrofa, UniProt P19156), item COCCOc1ccnc(C[S+]([O-])c2nc3cc(OC)ccc3[nH]2)c1C (stereo not shown) ?
Response line: 5600
